Provide the reported % INHIB of each item.
- Tested on: human apolipoprotein B mRNA
- experimental-protocol: Inhibition of human apolipoprotein B mRNA levels in HepG2 cells, quantitative real-time PCR
- Assay type: cell-based
- study-conditions: HepG2 cells; human apolipoprotein B mRNA; oligonucleotides targeting genomic sequence SEQ ID NO 334; averages from two experiments
In the oligonucleotide strings, read from the 5' end, every base follows the letter of its sugar. An asterisk marks phosphorothioate; unmarked linkages are phosphodiester. Other units and linkages are bracketed, terminal groups are in braces. A string of capitals states the bases alone. e = 2'-O-(2-methoxyethyl) (MOE); [5mC] = 5-methylcytosine; d = 2'-deoxy (DNA)
Numbers only, in %.

Examples with answers:
301168 (antisense e[5mC]*eA*e[5mC]*eT*e[5mC]*dA*dT*dG*dA*d[5mC]*d[5mC]*dA*dG*dA*d[5mC]*eT*eA*eA*eG*eA) [compound 301168] :: 35
301189 (antisense eT*eG*eT*eG*eT*d[5mC]*dA*d[5mC]*dA*dA*d[5mC]*dT*dA*dT*dG*eG*eT*eA*eA*eA) [compound 301189] :: 63
301159 (eT*eG*e[5mC]*eT*eT*dT*dA*d[5mC]*d[5mC]*dT*dA*d[5mC]*d[5mC]*dT*dA*eG*e[5mC]*eT*eA*e[5mC]; antisense) [compound 301159] :: 36

Can you give me % INHIB for all of these, one by one?
1. 301211 (antisense e[5mC]*eT*e[5mC]*eT*e[5mC]*dT*dG*dA*dA*dA*dA*dA*dT*dA*dT*eA*e[5mC]*e[5mC]*e[5mC]*eT) [compound 301211]
2. 301145 (eA*eA*eG*eG*eA*d[5mC]*d[5mC]*dT*dT*d[5mC]*dA*dG*d[5mC]*dA*dA*eA*eG*eG*eT*eA; antisense) [compound 301145]
3. 301170 (antisense eT*eT*e[5mC]*eA*eT*dA*dT*dG*dA*dA*dA*dT*d[5mC]*dT*d[5mC]*e[5mC]*eT*eA*e[5mC]*eT) [compound 301170]
4. 301096 (antisense eA*eT*eA*e[5mC]*eT*dT*dA*dT*dT*d[5mC]*d[5mC]*dT*dG*dG*dT*eA*eA*e[5mC]*e[5mC]*eA) [compound 301096]
5. 301147 (eA*eT*eT*eA*eT*dG*dA*dT*dA*dA*dA*dA*dT*d[5mC]*dA*eA*eT*eT*eT*eT; antisense) [compound 301147]

17
36
40
24
19

// each listed substance needs a value for % INHIB
1. 301090 (antisense eA*eT*eT*eA*eG*dA*d[5mC]*dT*dG*dG*dA*dA*dG*d[5mC]*dA*eT*e[5mC]*e[5mC]*eT*eG) [compound 301090]
2. 301097 (antisense eG*eG*eT*eA*eG*d[5mC]*d[5mC]*dA*dG*dA*dA*d[5mC]*dA*d[5mC]*d[5mC]*eA*eG*eT*eG*eT) [compound 301097]
3. 301132 (eT*e[5mC]*eA*e[5mC]*eA*d[5mC]*dT*dT*dA*d[5mC]*d[5mC]*dT*d[5mC]*dG*dA*eT*eG*eA*eG*eG; antisense) [compound 301132]
4. 301060 (e[5mC]*e[5mC]*eA*eG*e[5mC]*dT*d[5mC]*dA*dA*d[5mC]*d[5mC]*dT*dG*dA*dG*eA*eA*eT*eT*e[5mC]; antisense) [compound 301060]
5. 301160 (eA*e[5mC]*e[5mC]*eT*eT*dG*dT*dG*dT*dG*dT*d[5mC]*dT*d[5mC]*dA*e[5mC]*eT*e[5mC]*eA*eA; antisense) [compound 301160]
6. 301212 (antisense eT*eT*eG*eA*eT*dG*dT*dA*dT*d[5mC]*dT*d[5mC]*dA*dT*d[5mC]*eT*eA*eG*e[5mC]*eA) [compound 301212]
7. 301063 (eG*eT*e[5mC]*eA*e[5mC]*dA*dT*d[5mC]*d[5mC]*dG*dT*dG*d[5mC]*d[5mC]*dT*eG*eG*eT*eG*e[5mC]; antisense) [compound 301063]

39
50
29
17
49
41
41

Hi! Can you tell me % INHIB for each of these substances?
1. 301214 (antisense eT*eT*eT*e[5mC]*eT*d[5mC]*dT*dT*dT*dA*dT*d[5mC]*dA*d[5mC]*dA*eT*eG*e[5mC]*e[5mC]*e[5mC]) [compound 301214]
2. 301080 (e[5mC]*e[5mC]*e[5mC]*eA*eG*d[5mC]*dA*dA*dA*d[5mC]*dA*d[5mC]*dA*dG*dG*eT*eG*eA*eA*eG; antisense) [compound 301080]
3. 301078 (eT*eT*eT*eT*eA*dA*dA*dA*dT*dT*dA*dG*dA*d[5mC]*d[5mC]*e[5mC]*eA*eA*e[5mC]*e[5mC]; antisense) [compound 301078]
4. 301202 (antisense e[5mC]*eA*eG*e[5mC]*eT*d[5mC]*dA*d[5mC]*dA*d[5mC]*dT*dT*dA*dT*dT*eT*eT*eA*eA*eA) [compound 301202]

1: 29; 2: 25; 3: 22; 4: 7

Provide reported % INHIB for each item, in the same order as listed.
1. 301144 (eG*e[5mC]*eA*eA*eA*dG*dG*dT*dA*dG*dA*dG*dG*dA*dA*eG*eG*eT*eA*eT; antisense) [compound 301144]
2. 301203 (antisense eG*eT*eT*e[5mC]*e[5mC]*d[5mC]*dA*dA*dA*dA*d[5mC]*dT*dG*dT*dA*eT*eA*eG*eG*eA) [compound 301203]
3. 301079 (eT*eG*eA*e[5mC]*eT*dG*dT*dT*dT*dT*dA*dA*dA*dA*dT*eT*eA*eG*eA*e[5mC]; antisense) [compound 301079]

1. 32
2. 36
3. 20

====

- Test system: human apolipoprotein B mRNA
- experimental-protocol: Inhibition of human apolipoprotein B mRNA levels in HepG2 cells, quantitative real-time PCR
- Type: cell-based
- study-conditions: HepG2 cells; human apolipoprotein B mRNA; oligonucleotides targeting genomic sequence SEQ ID NO 334; averages from two experiments
In the oligonucleotide strings, read from the 5' end, every base follows the letter of its sugar. An asterisk marks phosphorothioate; unmarked linkages are phosphodiester. Other units and linkages are bracketed, terminal groups are in braces. A string of capitals states the bases alone. e = 2'-O-(2-methoxyethyl) (MOE); [5mC] = 5-methylcytosine; d = 2'-deoxy (DNA)
Please provide measured % INHIB for the entries that follow.
One number for each entry, in %.

Worked cases, % INHIB given:
301146 (e[5mC]*eA*eT*eA*eG*dG*dA*dG*dT*dA*d[5mC]*dA*dT*dT*dT*eA*eT*eA*eT*eA; antisense) [compound 301146] :: 23
301125 (eA*eG*eG*eG*eA*dT*dG*dG*dT*d[5mC]*dA*dA*dT*d[5mC]*dT*eG*eG*eT*eA*eG; antisense) [compound 301125] :: 57
301133 (eA*eA*eG*eA*eA*dA*dA*dT*dG*dG*d[5mC]*dA*dT*d[5mC]*dA*eG*eG*eT*eT*eT; antisense) [compound 301133] :: 13

Please examine the following record next.
Which % INHIB value is on record for 301110 (antisense e[5mC]*eT*eG*eG*eA*dG*dA*dG*d[5mC]*dA*d[5mC]*d[5mC]*dT*dG*d[5mC]*eA*eA*eT*eA*eG) [compound 301110] ?
35

====

- Test system: human apolipoprotein B mRNA
- experimental-protocol: Inhibition of human apolipoprotein B mRNA levels in HepG2 cells, quantitative real-time PCR
- Type: cell-based
- study-conditions: HepG2 cells, 300 nM oligonucleotide, normalized to untreated control, average of two experiments
- Description: The human hepatoblastoma cell line HepG2 was obtained from the American Type Culture Collection (Manassas, Va.). […] Quantitation of apolipoprotein B mRNA levels was determined by real-time quantitative PCR using the ABI PRISM™ 7700 Sequence Detection System (PE-Applied Biosystems, Foster City, Calif.) according to manufacturer's instructions. […]
In the oligonucleotide strings, read from the 5' end, every base follows the letter of its sugar. An asterisk marks phosphorothioate; unmarked linkages are phosphodiester. Other units and linkages are bracketed, terminal groups are in braces. A string of capitals states the bases alone. e = 2'-O-(2-methoxyethyl) (MOE); [5mC] = 5-methylcytosine; d = 2'-deoxy (DNA)
quantity-measured: % inhibition of apolipoprotein B mRNA levels

271009 (antisense eG*e[5mC]*e[5mC]*eT*e[5mC]*dA*dG*dT*d[5mC]*dT*dG*d[5mC]*dT*dT*d[5mC]*eG*e[5mC]*eG*e[5mC]*e[5mC]) [compound 271009] :: 95%
308642 (GCCTCAGTCTGCTTCGCGCC; 3-10-7 MOE gapmer, phosphorothioate, chemistry not fully specified) [compound 308642] :: 98%

Field request: % inhibition of apolipoprotein B mRNA levels | item: 301012 (eG*e[5mC]*e[5mC]*eT*e[5mC]*dA*dG*dT*d[5mC]*dT*dG*d[5mC]*dT*dT*d[5mC]*eG*e[5mC]*eA*e[5mC]*e[5mC]) [compound 301012]
95%
